Biological target: rhJAK3 (Homo sapiens, UniProt P52333)
Construct: recombinant purified GST-tagged catalytic domain for each enzyme; purchased Invitrogen PV3855
Sequence (P52333 822-1111 limits assumed): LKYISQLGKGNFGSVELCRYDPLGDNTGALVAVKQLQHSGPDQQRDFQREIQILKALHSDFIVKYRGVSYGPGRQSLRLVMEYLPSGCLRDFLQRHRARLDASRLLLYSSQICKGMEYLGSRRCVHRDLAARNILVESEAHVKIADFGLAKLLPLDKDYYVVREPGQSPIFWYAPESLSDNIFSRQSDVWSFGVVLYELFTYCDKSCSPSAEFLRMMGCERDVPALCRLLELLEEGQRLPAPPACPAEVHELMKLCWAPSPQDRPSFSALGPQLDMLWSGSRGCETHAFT
Experiment: JAK Biochemical HTRF Assay (JAK3)
Conditions: recombinant purified GST-tagged catalytic domain, HTRF format, [ATP] 1.7 μM; read-out: rhJAK3 IC50
Please respond with reported IC50 for every item in the list.

(Q) Provide one value: measured IC50 of CC(C)[C@@H](Nc1cncc(-c2c[nH]c3ncc(Cl)cc23)n1)C(=O)NCC(F)(F)F [Example 1-12]
(A) ≤ 1 nM

(Q) Provide one value: measured IC50 of C[C@@H](Nc1cncc(-c2c[nH]c3ncc(Cl)cc23)n1)C(=O)N[C@H](CO)Cc1ccc(O)cc1 [Example 2-18]
(A) 100 to 1000 nM

(Q) Provide one value: measured IC50 of C[C@@H](Nc1cncc(-c2c[nH]c3ncc(Cl)cc23)n1)C(=O)NCC(F)(F)F [Example 1]
(A) ≤ 1 nM

(Q) Provide one value: measured IC50 of C[C@H](Nc1cncc(-c2c[nH]c3ncc(Cl)cc23)n1)C(=O)NCC(F)(F)F [Example 2]
(A) ≤ 1 nM

(Q) Provide one value: measured IC50 of O=C(NCC(F)(F)F)C1(Oc2cncc(-c3c[nH]c4ncc(Cl)cc34)n2)CC1 [Example 6]
(A) 1 to 10 nM

(Q) Provide one value: measured IC50 of O=C(NCC(F)(F)F)[C@H]1CNCCN1C(=O)c1cncc(-c2c[nH]c3ncc(Cl)cc23)n1 [Example 7-1]
(A) 100 to 1000 nM

(Q) Provide one value: measured IC50 of CC1(C(=O)NCC(F)(F)F)CCN1c1cncc(-c2c[nH]c3ncc(Cl)cc23)n1 (stereo not shown) [Example 1-9]
(A) ≤ 1 nM

(Q) Provide one value: measured IC50 of O=C(NCC(F)(F)F)c1ccc(-c2cncc(-c3c[nH]c4ncc(Cl)cc34)n2)cc1 [Example 10]
(A) 100 to 1000 nM

(Q) Provide one value: measured IC50 of O=C(Cc1cncc(-c2c[nH]c3ncc(Cl)cc23)n1)NCC(F)(F)F [Example 8]
(A) 10 to 100 nM

(Q) Provide one value: measured IC50 of O=C(NCC(F)(F)F)[C@@H]1CC[C@H](Nc2cncc(-c3c[nH]c4ncc(Cl)cc34)n2)C1 [Example 1-3]
(A) 1 to 10 nM

(Q) Provide one value: measured IC50 of O=C(NCC(F)(F)F)C1CN(c2cncc(-c3c[nH]c4ncc(Cl)cc34)n2)C1 [Example 1-15]
(A) 10 to 100 nM

(Q) Provide one value: measured IC50 of CC1(C(=O)NCC(F)(F)F)CC1c1cncc(-c2c[nH]c3ncc(Cl)cc23)n1 (stereo not shown) [Example 10-2]
(A) 1 to 10 nM

(Q) Provide one value: measured IC50 of O=C(NCC(F)(F)F)[C@H]1CCCN1c1cncc(-c2c[nH]c3ncc(Cl)cc23)n1 [Example 1-6]
(A) ≤ 1 nM

(Q) Provide one value: measured IC50 of CC(C)(C)OC(=O)N1CCN(c2cncc(-c3c[nH]c4ncc(Cl)cc34)n2)[C@@H](C(=O)NCC(F)(F)F)C1 [Example 1-13]
(A) 1 to 10 nM

(Q) Provide one value: measured IC50 of O=C(NCC(F)(F)F)[C@@H]1[C@@H](O)CN1c1cncc(-c2c[nH]c3ncc(Cl)cc23)n1 [Example 3]
(A) 1 to 10 nM

(Q) Provide one value: measured IC50 of C[C@H](Nc1cncc(-c2c[nH]c3ncc(Cl)cc23)n1)C(=O)N1CCOCC1 [Example 2-2]
(A) 100 to 1000 nM
